# Run description: Solubility in PBS
# Assay type: physicochemical

Compound | Solubility, µM
CC(=O)N1CCC[C@]12CC=CCCCC1(CCCC=CCCCCCC[C@@](C)(C(=O)N[C@@H](Cc3ccccc3)C(=O)N[C@@H](Cc3csc4ccccc34)C(=O)N[C@@H](CCC(N)=O)C(N)=O)NC(=O)[C@H](C(C)C)NC(=O)[C@H](Cc3ccccc3)NC(=O)[C@H](C)NC(=O)[C@H](C)NC(=O)[C@H](CC(=O)O)NC(=O)[C@H](CC(=O)O)NC1=O)NC(=O)[C@H](CCC(N)=O)NC(=O)[C@H](CC(=O)O)NC2=O (some centres unmarked) [I-347] | 50
CC(=O)N1CCC[C@]12CC=CCCCC1(CCCC=CCCCCCC[C@@](C)(C(=O)N[C@@H](Cc3ccc(C(N)=O)cc3)C(=O)N[C@@H](Cc3csc4ccccc34)C(=O)N[C@@H](CCC(N)=O)C(N)=O)NC(=O)[C@H](C(C)C)NC(=O)[C@H](Cc3ccccc3)NC(=O)[C@H](C)NC(=O)[C@H](C)NC(=O)[C@H](CC(=O)O)NC(=O)[C@H](CC(=O)O)NC1=O)NC(=O)[C@H](C)NC(=O)[C@H](CC(=O)O)NC2=O (some centres unmarked) [I-337] | 48
